Hello, the source for this data is patent US20120201826A1, in case you need it.

Biological target: T1, recombinant human RANTES (huRANTES, Peprotech) (human, UniProt P13501 24-91)
T1 sequence: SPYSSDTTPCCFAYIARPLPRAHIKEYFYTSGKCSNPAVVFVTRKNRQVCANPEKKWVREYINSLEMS
Assay: cell-based or functional assay
Metric: Calcium Flux IC50 (nM), 10 nM rhuRANTES; L1.2-hCCR5 cells; IgG1 format
Number only, in nM; omit the unit.

Q: Give the reported Calcium Flux IC50 (nM), 10 nM rhuRANTES; L1.2-hCCR5 cells; IgG1 format for this binder. E6 antibody, IgG1 format (antibody, V domains shown) VH: QVQLVQSGAEVEKPGASVKVSCRVSGYPLTEIAIHWVRQAPGKGLEWMGSFEPEDAEAIYAQRFQGRVTMTEETSANTAYMELSSLRSEDTAVYFCATDPYYASSGSNYMEVWGRGTLVTVSS VL: NFMLTQPHSVSESPGKTVTISCTGSGGSISSNYVQWYRQRPGSAPSTVIYEDDQRPSGVPDRISGSIDSSSNSASLTISGLTTEDEADYYCHSYDGNNRWVFGGGTKLTVL
Result: 12.7

Q: Please list Calcium Flux IC50 (nM), 10 nM rhuRANTES; L1.2-hCCR5 cells; IgG1 format recorded for the binder CG11 antibody, IgG1 format (antibody, V domains shown) VH: QVQLVQSGTEVKKPGATVNVSCKISGHLFTDYYIHWVQQAPGKGLEWVGLIDPKDGEIQYAEKFQARVTITADTSTDTVYMELNSLRSEDTAVYYCATEVLSGIRVFPFDPWGQGTLVTVSS VL: QSVLTQPPSVSGAPGQRVTISCTGSSSNIGAGYDVYWYQQFPGKAPKLLIYDTNNRPPGVPDRFSGSKSGTSASLAISGLQTEDEADYYCQSYDIALSNSNVVFGGGTKLTVL
Result: 9.5

Q: // Input: BG11 antibody, IgG1 format (antibody, V domains shown) VH: QVQLVQSGAEVKKPGASVKVSCKVSGYTLTELSMHWVRQAPGKGLEWMGGFDPEDGETIYAQKFQGRVTMTEDTSTDTAYMELSSLRSEDTAVYYCATYSGSSGWWAFDIWGQGTMVTVSS VL: SSELTQDPAVSVALGQTVRITCQGDSLRSYYASWYQQKPGQAPVLVIYGKNNRPSGIPDRFSGSSSGNTASLTITGAQAEDEADYYCQTWGTGIWVFGGGTKLTVL . Output its Calcium Flux IC50 (nM), 10 nM rhuRANTES; L1.2-hCCR5 cells; IgG1 format only.
Result: 7.7

Q: Quickly give me recorded Calcium Flux IC50 (nM), 10 nM rhuRANTES; L1.2-hCCR5 cells; IgG1 format for H6 antibody, IgG1 format (antibody, V domains shown) VH: QVQLVQSGAEVKRPGASVKVSCKVSGNTLSKQSMHWVRQAPGKGFEWMGSSNPEDDETLYAKKFQGRVTMTEDTSTDTAYLELSSLRSEDTAVYYCATDSQGFYYYYGMDVWGQGTLVTVSS VL: QSVLTQPPSVSGAPGQRVTISCTGSSSNIGADYDVHWYQQLPGTVPKLLIYDNINRPSGVPDRFSGSKSGTSASLAITGLQAEDEADYYCQSYDSSLSGVLFGGGTKVTVL
Result: 9
